Recorded values, source patent US7989438B2.

- Tested on: HCV subgenomic replication
- Experimental Details: Cell based HCV replication assay (subgenomic replicon in Huh-7 cells, NS3 Cell-ELISA)
- Assay Context: Hepatitis C virus, Huh-7; Table 3, various macrocycles; activity ranges; read-out: IC50* (nM), Inhibition of HCV subgenomic replication
Each item that follows carries a reported IC50.
Quantity Kind: IC50

>  <Chem Smiles>
O=C1NS(=O)(=O)N2CCN(CCN(CCF)[C@H]3COc4ccccc4-c4c(C5CCCCC5)c5ccc1cc5n4C3)CC2

>  <Measurement Target>
HCV subgenomic replication

>  <Observed Result>
25 to 150 nM

$$$$
>  <Chem Smiles>
CN1C2CCN(CCN(C)S(=O)(=O)NC(=O)c3ccc4c(C5CCCCC5)c5n(c4c3)C[C@@H]1COc1ccccc1-5)C2

>  <Measurement Target>
HCV subgenomic replication

>  <Observed Result>
< 25 nM

$$$$
>  <Chem Smiles>
O=C1NS(=O)(=O)N2CCCN(CCN(Cc3ccccc3)[C@H]3COc4ccccc4-c4c(C5CCCCC5)c5ccc1cc5n4C3)CC2

>  <Measurement Target>
HCV subgenomic replication

>  <Observed Result>
150 to 500 nM

$$$$
>  <Chem Smiles>
CN1CCOC2CCN(CC2)S(=O)(=O)NC(=O)c2ccc3c(C4CCCCC4)c4n(c3c2)C[C@@H]1COc1ccccc1-4

>  <Measurement Target>
HCV subgenomic replication

>  <Observed Result>
150 to 500 nM

$$$$

====

- Tested on: HCV subgenomic replication
- Experimental Details: Cell based HCV replication assay (subgenomic replicon in Huh-7 cells, NS3 Cell-ELISA)
- Assay Context: Table A; activity ranges; Huh-7 replicon cells, 96 hours; read-out: IC50 (nM), Inhibition of HCV subgenomic replication
Each item that follows carries a reported IC50.
Quantity Kind: IC50

>  <Compound>
CN1CCCN(C)S(=O)(=O)NC(=O)c2ccc3c(C4CCCCC4)c4n(c3c2)CC(CC1)COc1ccccc1-4 (single isomer, unassigned; (+)) [Compound A13]

>  <Observed Result>
25 to 150 nM

$$$$
>  <Compound>
CN1CCNCCN(C)S(=O)(=O)NC(=O)c2ccc3c(C4CCCCC4)c4n(c3c2)CC1COc1ccccc1-4 (stereo not drawn) [Compound A1]

>  <Observed Result>
< 25 nM

$$$$
>  <Compound>
CN1CCN(C)C2COc3cc(OCc4ccccn4)ccc3-c3c(C4CCCCC4)c4ccc(cc4n3C2)C(=O)NS(=O)(=O)N(C)CC1 (stereo not drawn)

>  <Observed Result>
< 25 nM

$$$$
>  <Compound>
CN1CCCCN(C)S(=O)(=O)NC(=O)c2ccc3c(C4CCCCC4F)c4n(c3c2)CC(COc2ccccc2-4)C1 (single isomer, unassigned)

>  <Observed Result>
25 to 150 nM

$$$$
>  <Compound>
CN1CCCC2COc3ccccc3-c3c(C4CCCCC4)c4ccc(cc4n3C2)C(=O)NS(=O)(=O)N(C)CC1 (stereo not drawn)

>  <Observed Result>
< 25 nM

$$$$
>  <Compound>
CCN1CCN(CCN(C)C)C2COc3cc(F)ccc3-c3c(C4CCCCC4)c4ccc(cc4n3C2)C(=O)NS(=O)(=O)N(C)CC1 (stereo not drawn)

>  <Observed Result>
< 25 nM

$$$$
>  <Compound>
CC(C)N1CCN(C)C2COc3ccccc3-c3c(C4CCCCC4)c4ccc(cc4n3C2)C(=O)NS(=O)(=O)N(C)CC1 (stereo not drawn)

>  <Observed Result>
< 25 nM

$$$$
>  <Compound>
CN1CCOC2COc3ccccc3-c3c(C4CCCCC4)c4ccc(cc4n3C2)C(=O)NS(=O)(=O)N(C)CC1 (stereo not drawn)

>  <Observed Result>
25 to 150 nM

$$$$
>  <Compound>
COc1ccc2c(c1)CC1CCN(C)CCN(C)S(=O)(=O)NC(=O)c3ccc4c(C5CCCCC5)c-2n(c4c3)C1 (stereo not drawn)

>  <Observed Result>
25 to 150 nM

$$$$
